Assay: BSK_3C_uPAR: BioMAP Diversity Plus: 3C Assay for Urokinase-type plasminogen activator receptor (uPAR) Biomarker Activity (AID 2282998)
Details: BioMAP 3C HUVEC, uPAR biomarker ELISA; actives raise or lower the signal
Description: BSK_3C is a cell-based, multiplexed-readout assay that uses umbilical vein endothelium, a human vascular primary cell, with measurements taken at 24 hours after chemical dosing in a 96-well plate.BSK_3CAR is an assay component measured in the BSK_3C assay. It measures uPAR antibody related to regulation of gene expression using ELISA technology.Data from the assay component BSK_3CAR was analyzed into 1 assay endpoint. […]
Active and inactive are the calls of the source. How the source made its calls: active means hit-call score of the fitted dose curve at least 0.9, where 1 is the maximum; inactive means score below 0.9.
Possible outcomes: active, inactive

# smiles_text, class_label
measured = [
    ("CC(C)(C)c1cc(O)c(C(C)(C)C)cc1O", "inactive"),
    ("COc1cc(S(=O)(=O)O)c(C)cc1N=Nc1c(O)ccc2cc(S(=O)(=O)O)ccc12", "inactive"),
    ("CCc1c(C(=O)NN2CCCCC2)nn(-c2ccc(Cl)cc2Cl)c1-c1ccc(Br)cc1", "active"),
    ("Cc1ccc(C)c(C)c1", "inactive"),
    ("CCCc1cc(=O)[nH]c(=S)[nH]1", "inactive"),
    ("C1CCC(SSC2CCCCC2)CC1", "inactive"),
    ("O=C(O)Cc1ccccc1Nc1c(Cl)cccc1Cl", "inactive"),
    ("Cc1cccc(Nc2cc(Cl)nc(SCC(=O)O)n2)c1C", "inactive"),
    ("O=C(OCCCCCOC(=O)c1ccccc1)c1ccccc1", "inactive"),
    ("O=C(N[C@@H](Cc1ccccc1)[C@@H](O)C(=O)N1C[C@@H](O)[C@@H](O)C1)c1cc2cc(Cl)ccc2[nH]1", "inactive"),
]
